- SYSTEM_UNDER_TEST: Histone deacetylase 3 (Homo sapiens);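 note: recombinant HDAC3 enzyme with Boc-Lys(acetyl)-AMC substrate, fluorescence readout, compound preincubated 1 hr before a 2 hr reaction, inhibition expressed relative to control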
- Sequence (O15379 whole entry): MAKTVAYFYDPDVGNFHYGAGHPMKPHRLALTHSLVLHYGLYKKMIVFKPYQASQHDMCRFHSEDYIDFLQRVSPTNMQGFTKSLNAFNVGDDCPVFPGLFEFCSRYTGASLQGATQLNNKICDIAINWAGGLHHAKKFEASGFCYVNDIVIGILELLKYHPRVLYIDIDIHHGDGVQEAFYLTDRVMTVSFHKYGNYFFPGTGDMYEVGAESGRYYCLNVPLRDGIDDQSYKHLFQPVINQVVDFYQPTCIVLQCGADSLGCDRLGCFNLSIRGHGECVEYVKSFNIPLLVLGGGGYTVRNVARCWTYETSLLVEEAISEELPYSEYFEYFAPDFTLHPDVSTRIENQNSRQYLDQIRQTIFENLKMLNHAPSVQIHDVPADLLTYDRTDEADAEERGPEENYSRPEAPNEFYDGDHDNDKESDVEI
- CONDITION_SUMMARY: dose 500.0 nM, time 3.0 hrs
REPORTED_METRIC: inhibition

Sample CCCNNC(=O)c1ccc(Cn2c3ccccc3c3c(-c4ccc(C#N)cc4)nc4ccccc4c32)cc1 — what was its inhibition?
33%

Sample CCCNNC(=O)c1ccc(Cn2c3ccccc3c3c(-c4cccc([N+](=O)[O-])c4)nc4ccccc4c32)cc1 — what was its inhibition?
47%

Sample CCCN(CCC)NC(=O)c1ccc(Cn2c3ccccc3c3c(-c4ccccn4)nc4ccccc4c32)cc1 — what was its inhibition?
29%

Sample CCCNNC(=O)c1ccc(Cn2c3ccccc3c3c(-c4cc(Cl)ccc4O)nc4ccccc4c32)cc1 — what was its inhibition?
47%

Sample CCCNNC(=O)c1ccc(Cn2c3ccccc3c3c(-c4ccccn4)nc4ccccc4c32)cc1 — what was its inhibition?
96%

Sample CCNNC(=O)c1ccc(Cn2c3ccccc3c3c(-c4ccccn4)nc4ccccc4c32)cc1 — what was its inhibition?
32%

Sample CC(C)CCNNC(=O)c1ccc(Cn2c3ccccc3c3c(-c4ccccn4)nc4ccccc4c32)cc1 — what was its inhibition?
< 10%

Sample CCCNNC(=O)c1ccc(Cn2c3ccccc3c3c(-c4cn(C)c5ccccc45)nc4ccccc4c32)cc1 — what was its inhibition?
36%
